Target: Msn1 (UniProt P22148)
Sequence: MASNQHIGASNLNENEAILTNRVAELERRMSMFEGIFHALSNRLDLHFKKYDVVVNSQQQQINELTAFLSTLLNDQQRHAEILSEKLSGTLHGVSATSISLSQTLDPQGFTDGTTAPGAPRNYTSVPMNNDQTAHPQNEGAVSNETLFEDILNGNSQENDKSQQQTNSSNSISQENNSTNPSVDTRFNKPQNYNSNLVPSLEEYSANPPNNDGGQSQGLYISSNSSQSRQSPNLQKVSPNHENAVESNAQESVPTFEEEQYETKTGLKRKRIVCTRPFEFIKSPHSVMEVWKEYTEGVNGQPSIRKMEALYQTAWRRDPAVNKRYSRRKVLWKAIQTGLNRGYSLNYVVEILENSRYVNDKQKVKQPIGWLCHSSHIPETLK
Assay: PBM E-score (8-mer binding enrichment) (E-score (-0.5 to 0.5)); higher = stronger / more preferred TF binding
Conditions: protein concentration: 200 nM; construct: GST-full length
Over roughly 33,000 sequences, “E-score (-0.5 to 0.5)” has its median near -0.013; the highest 2% begin near 0.3. This excerpt belongs to a sample that is enriched for the highest values.
metric: PBM E-score
One number for each entry.

AAATTCGT: 0.256

// input: 4 sequences below; output: PBM E-score for each
1. CAGAAATA
2. GCTCAACA
3. CCTCGAAG
4. AGCTTAAT

1. 0.0248
2. -0.0111
3. 0.0737
4. -0.00074

// input: 6 sequences below; output: PBM E-score for each
1. ATGTCCGA
2. GCTTCTAC
3. CACCAGAC
4. AATGGAAT
5. AACTTTGA
6. CTTACTGC

1: 0.475; 2: -0.0502; 3: 0.00954; 4: 0.238; 5: 0.12; 6: -0.143

// input: 7 sequences below; output: PBM E-score for each
1. CGCCCTTA
2. GAAATCTA
3. AGCCACTA
4. CTCTTGTC
5. AAACGCCT
6. GCTGTGCC
7. AGGTCCGA

1. -0.0904
2. -0.139
3. -0.0424
4. 0.339
5. -0.0244
6. 0.00582
7. 0.132

// input: 4 sequences below; output: PBM E-score for each
1. ACGTTAGT
2. AACGTCAG
3. ACGTCCGA
4. AACATGAT

[0.0228, -0.248, -0.00037, 0.173]
